experiment: folding stability dG unfold from chymotrypsin proteolysis; higher = more stable
Assign class by folding stability dG unfold: not lower than 3 kcal/mol means MET; lower than 3 kcal/mol means NOT MET.

These solved cases illustrate the format of a correct answer.
residue_string="SPQNLVRIAEIKVELKLDGKKYIITIEVYRPPDSDEVIVRVKVIDPSSDKSSPELEKIAKELEKKIEEELKS [r1_229_JUSTAS]" assigned_label=MET
residue_string="SAGGSAGGSAAISIDLPPNSVLNISIPVTEPGGKPYTVKISVYSTPLPSNSYELNIKVTIVSAGGSAGGSAG [r3_347_JUSTAS]" assigned_label=MET
residue_string="SAGGMPPVKVPVKVTISMKDPKTGKTFTVPVEKVATSEEDLEEIKKEVEELAKELKEKGYKEIEIKIESAGG [r13_360_JUSTAS]" assigned_label=MET
residue_string="SAGLKIVEDIRKKLEEEGYDVKVKYEIKPEPKDGKYIITIEVTIKDEKGNEVPIGKETIVIPLEEYEKSSAG [r5_413_JUSTAS]" assigned_label="NOT MET"
residue_string="SAGWIMINSPEDAERIVEELRKLLPPGYKIDVEPMPNGSVMIEFENPEEGREIKIHYDRRNGMYWIEPVSAG [r5_358_TrROS]" assigned_label="NOT MET"
residue_string="SAGMPLSVEEAIALLRKEIEAIPVPPSVTEIEFEITIPADGRPVKITVKVNEGKLEITVTVGDKPIKIGSAG [r14_199_JUSTAS]" assigned_label="NOT MET"

Req: Is reported folding stability dG unfold greater than or equal to 3 kcal/mol here: SAGMPITVDSEVDPETGTTTYTITMPRGPGEPVTVTIPVTYSDDSVTIEVTASPGVDAAEIKALIEKQSSAG [r5_478_JUSTAS]
Resp: NOT MET

====

assay: folding stability dG unfold from trypsin proteolysis; higher = more stable
Binary classification by folding stability dG unfold, with 2 kcal/mol as an inclusive lower bound for 1.0; all other cases are 0.0.

residue_string="SAGGSASAEEAARAFVAAHPDRALVEVEIERSFIPEKGVEVVTLTVTLAFPDGSRRVVPVTVTRPRSAGGSA [r15_266_JUSTAS]" assigned_label=0.0
residue_string="SAGGMKKYKIKVENLPPGARIITPDGREIKPGEEVEIELPEDVKEIYVILPDGKIVKVKVEEVEPEEESAGG [r13_441_TrROS_Hall]" assigned_label=1.0
residue_string="SAGGSAGGMTLTVDLPLPDGGTVRLEVEPLPDGTVRVRLTYPDGRKAEFETSAPVEVLLERAAGSAGGSAGG [r6_808_TrMRF]" assigned_label=0.0

Req: Answer whether folding stability dG unfold of SAGGEKRYLVRVRAYYRFEEGERELDLEVEVTSPEEAKELLEKIATRLRKLYPDRIRIEVEIRPLEESAGGS [r16_475_TrMRF] is greater than or equal to 2 kcal/mol.
Resp: 1.0

====

experiment: folding stability dG unfold from trypsin proteolysis; higher = more stable
# if value of folding stability dG unfold reaches 1 kcal/mol, tag fulfilled; if it stays below, tag not fulfilled

Some solved entries appear below for comparison.
residue_string="SAGGMGLEELAKLSPEEIARRLAAEAKAAAAAAGTPDAAVTLEVTLEDKPIVVEVGADGTIRRVELGSAGGS [r16_431_JUSTAS]" assigned_label="not fulfilled"
residue_string="SAGGSAGGSPDVVVPATLTFPLDAVAKAEFYPDGTVKVTFPDNTVALAKVEGGVVTDVRLAPASAGGSAGGS [r12_749_TrMRF]" assigned_label="not fulfilled"
residue_string="SAGDNYREVEYTLKLKNPKGERKLKVKVYYPKGGMFIKIEWPDNGRKIDIPFKSPEDAEETIKDLLDKLSAG [r5_480_TrROS]" assigned_label=fulfilled
residue_string="SAGGSAGGSAMIEISEEELEKLLAETPEEEAKEVKIERIPDIGLINVTIPSGKVIKVKIKESAGGSAGGSAG [r3_291_JUSTAS]" assigned_label="not fulfilled"

// switching to the query sequence
Req: Could you verify whether the entry SAGGSAGGSAGKPNIKKEANLEIFVTEDELEKALEIVKKLEEEGIEVKEAKIYVLKPEEGSAGGSAGGSAGG [r11_533_TrMRF] shows folding stability dG unfold of no less than 1 kcal/mol?
Resp: not fulfilled
